# targetOrTestSystem: CDK6/cyclin D3 (Homo sapiens, UniProt Q00534)
# Sequence (P30281 whole entry, the tested form may be a part): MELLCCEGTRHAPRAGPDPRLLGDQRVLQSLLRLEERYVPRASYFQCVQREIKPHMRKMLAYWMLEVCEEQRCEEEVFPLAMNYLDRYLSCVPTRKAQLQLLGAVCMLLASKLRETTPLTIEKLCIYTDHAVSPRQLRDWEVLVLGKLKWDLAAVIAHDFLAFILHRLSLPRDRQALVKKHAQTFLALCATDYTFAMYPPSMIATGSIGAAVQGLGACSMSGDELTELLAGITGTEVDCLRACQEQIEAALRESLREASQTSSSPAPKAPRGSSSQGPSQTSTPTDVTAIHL
# Sequence (Q00534 whole entry, the tested form may be a part): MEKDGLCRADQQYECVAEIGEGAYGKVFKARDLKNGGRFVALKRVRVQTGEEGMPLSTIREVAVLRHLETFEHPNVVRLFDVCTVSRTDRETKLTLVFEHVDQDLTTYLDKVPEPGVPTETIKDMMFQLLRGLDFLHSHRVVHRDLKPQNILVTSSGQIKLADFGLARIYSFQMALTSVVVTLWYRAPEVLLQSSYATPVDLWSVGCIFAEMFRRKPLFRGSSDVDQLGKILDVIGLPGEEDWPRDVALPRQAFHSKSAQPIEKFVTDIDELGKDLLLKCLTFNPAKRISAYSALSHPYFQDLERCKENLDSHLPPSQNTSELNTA
# protocolSummary: Inhibition of full length N-terminal GST fused human CDK6 (1 to 326 residues)/CyclinD3 (1 to 292 residues) expressed in baculovirus expression system using FL peptide as substrate preincubated for 30 mins followed by substrate addition and further incubated for 120 mins by EZ reader method
Give measured pIC50 for each item. Keep answers brief.
Schema: pIC50 number; meaning minus log10 of the concentration expressed in molar units.

Problem: Find pIC50 (CDK6/cyclin D3 (Homo sapiens, UniProt Q00534)) for the entry CN1CCC([C@@](C)(O)c2ccc3cnc(Nc4cc(N5CC6CCC(C5)O6)c(C#N)cc4F)cc3n2)CC1
Result: 6.70

Problem: And for CC(C)Oc1cc(Nc2cc3nc([C@](C)(O)C4CCN(C)CC4)ccc3cn2)c(F)cc1C#N ?
Result: 6.10

Problem: Try CN1CCC([C@@](C)(O)c2ccc3cnc(Nc4cc(C(F)(F)F)ncc4F)cc3n2)CC1 next.
Result: 5.50

Problem: Another: CN1CCC([C@@](C)(O)c2ccc3cnc(Nc4cc(N5CCOCC5)c(C#N)cc4F)cc3n2)CC1
Result: 6.27

Problem: Now try CC(C)Nc1cc(Nc2cc3nc([C@](C)(O)C4CCN(C)CC4)ccc3cn2)c(F)cn1 .
Result: 6.09

Problem: Same for CN1CCC([C@@](C)(O)c2ccc3cnc(Nc4cc(N5CCOCC5)ncc4F)cc3n2)CC1
Result: 6.90

Problem: Field entry: CN1CCC([C@@](C)(O)c2ccc3cnc(Nc4cc(N5CCOCC5)ccc4F)cc3n2)CC1
Result: 6.61

Problem: Try this compound next: OCc1ccn(-c2ccc(Nc3cc4nc(OC5CCNCC5)ccc4cn3)c(F)c2)n1
Result: 5.96

Problem: Same question, CC(=O)N1CCN(c2ccc(F)c(Nc3cc4nc([C@](C)(O)C5CCN(C)CC5)ccc4cn3)c2)CC1 this time
Result: 6.15

----------
# targetOrTestSystem: CDK9/cyclin T1 (Homo sapiens, UniProt P50750)
# Sequence (O60563 whole entry, the tested form may be a part): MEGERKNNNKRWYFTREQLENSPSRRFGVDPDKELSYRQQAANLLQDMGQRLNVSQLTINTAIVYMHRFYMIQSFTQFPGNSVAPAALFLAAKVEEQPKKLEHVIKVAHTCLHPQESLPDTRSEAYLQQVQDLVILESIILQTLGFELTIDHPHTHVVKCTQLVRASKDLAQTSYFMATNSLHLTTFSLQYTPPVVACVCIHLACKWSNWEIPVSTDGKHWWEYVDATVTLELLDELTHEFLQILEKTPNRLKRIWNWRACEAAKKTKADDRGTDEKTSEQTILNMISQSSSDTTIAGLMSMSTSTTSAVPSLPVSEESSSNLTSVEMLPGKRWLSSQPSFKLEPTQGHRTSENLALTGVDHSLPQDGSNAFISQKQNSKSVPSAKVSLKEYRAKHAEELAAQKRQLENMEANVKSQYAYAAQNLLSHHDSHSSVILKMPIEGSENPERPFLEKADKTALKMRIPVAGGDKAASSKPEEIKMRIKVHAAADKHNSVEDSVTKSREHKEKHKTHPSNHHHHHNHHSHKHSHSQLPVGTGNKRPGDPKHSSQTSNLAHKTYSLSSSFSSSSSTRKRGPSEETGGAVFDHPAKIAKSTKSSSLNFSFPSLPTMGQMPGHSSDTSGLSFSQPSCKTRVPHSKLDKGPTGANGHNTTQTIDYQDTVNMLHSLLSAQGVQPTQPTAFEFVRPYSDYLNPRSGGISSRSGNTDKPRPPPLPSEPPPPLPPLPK
# Sequence (P50750 whole entry, the tested form may be a part): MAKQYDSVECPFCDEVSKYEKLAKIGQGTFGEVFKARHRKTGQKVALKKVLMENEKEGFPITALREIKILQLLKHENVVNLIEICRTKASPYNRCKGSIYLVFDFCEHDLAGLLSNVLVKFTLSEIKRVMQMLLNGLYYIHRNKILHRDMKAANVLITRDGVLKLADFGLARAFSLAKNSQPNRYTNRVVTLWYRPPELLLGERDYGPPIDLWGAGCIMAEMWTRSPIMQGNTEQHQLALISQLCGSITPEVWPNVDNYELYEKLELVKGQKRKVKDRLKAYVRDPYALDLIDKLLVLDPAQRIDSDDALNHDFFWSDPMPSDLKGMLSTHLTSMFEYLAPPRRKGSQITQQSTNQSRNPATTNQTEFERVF
# protocolSummary: Inhibition of full length N-terminal GST fused human CDK9(1 to 372 residues)/ His- tagged CyclinT1 (1 to 726 residues) expressed in baculovirus expression system using FL peptide as substrate preincubated for 30 mins followed by substrate addition and further incubated for 90 mins by EZ reader method
outcomeMeasure: pIC50
pIC50 field: float, defined as -log10 of concentration (mol/L).

Problem: Lab note: need pIC50 for CC(=O)N1CCN(c2ccc(F)c(Nc3cc4nc([C@](C)(O)C5CCN(C)CC5)ccc4cn3)c2)CC1 on CDK9/cyclin T1 (Homo sapiens, UniProt P50750), anyone have it?
Result: 6.28

Problem: Also OCc1ccn(-c2ccc(Nc3cc4nc(OC5CCNCC5)ccc4cn3)c(F)c2)n1 ?
Result: 5.71

Problem: Queued: CN1CCC([C@@](C)(O)c2ccc3cnc(Nc4cc(N5CCCC5)ncc4F)cc3n2)CC1
Result: 6.94

Problem: Record: CC(C)c1cc(Nc2cc3nc([C@](C)(O)C4CCN(C)CC4)ccc3cn2)c(F)cc1C#N
Result: 7.07

Problem: Similarly, CN1CCC([C@@](C)(O)c2ccc3cnc(Nc4cc(N5CCOCC5)ncc4F)cc3n2)CC1 ?
Result: 6.81

Problem: For CC(C)c1cc(Nc2cc3nc([C@](C)(O)C4CCN(C)CC4)ccc3cn2)c(F)cn1 then?
Result: 6.66

Problem: Record: CC(C)Oc1cc(Nc2cc3nc([C@](C)(O)C4CCN(C)CC4)ccc3cn2)c(F)cc1C#N
Result: 6.62

Problem: Request: CN1CCC([C@@](C)(O)c2ccc3cnc(Nc4cc(C(F)(F)F)c(C#N)cc4F)cc3n2)CC1
Result: 6.55

Problem: # repeat for CN1CCC([C@@](C)(O)c2ccc3cnc(Nc4cc(N5CC6CCC(C5)O6)c(C#N)cc4F)cc3n2)CC1
Result: 6.90

Problem: // same read-out, input: CC(C)Nc1cc(Nc2cc3nc([C@](C)(O)C4CCN(C)CC4)ccc3cn2)c(F)cn1
Result: 5.89

Problem: Same again, this time with CN1CCC([C@@](C)(O)c2ccc3cnc(Nc4cc(C(F)(F)F)ncc4F)cc3n2)CC1
Result: 6.05

Problem: Entry CN1CCC([C@@](C)(O)c2ccc3cnc(Nc4cc(N5CCOCC5)c(C#N)cc4F)cc3n2)CC1 please
Result: 6.70

Problem: Note, next up: CC(C)Oc1cc(Nc2cc3nc([C@](C)(O)C4CCN(C)CC4)ccc3cn2)c(F)cn1
Result: 6.35

Problem: Another: CN1CCC([C@@](C)(O)c2ccc3cnc(Nc4cc(N5CCOCC5)ccc4F)cc3n2)CC1
Result: 6.86

Problem: Would you kindly repeat that for CCc1cc(Nc2cc3nc([C@](C)(O)C4CCN(C)CC4)ccc3cn2)c(F)cn1 ?
Result: 6.65

Problem: Same lookup for CN1CCC([C@@](C)(O)c2ccc3cnc(Nc4cc(OC5CCC5)ncc4F)cc3n2)CC1 , please.
Result: 5.94

Problem: Do the same for CN1CCC([C@@](C)(O)c2ccc3cnc(Nc4cc(C(N)=O)ncc4F)cc3n2)CC1 please
Result: 6.45
